- TESTED_SYSTEM: SIK1 (Homo sapiens, UniProt P57059)
- Construct: purchased Carna Biosciences 02-131
- Sequence (P57059 whole entry): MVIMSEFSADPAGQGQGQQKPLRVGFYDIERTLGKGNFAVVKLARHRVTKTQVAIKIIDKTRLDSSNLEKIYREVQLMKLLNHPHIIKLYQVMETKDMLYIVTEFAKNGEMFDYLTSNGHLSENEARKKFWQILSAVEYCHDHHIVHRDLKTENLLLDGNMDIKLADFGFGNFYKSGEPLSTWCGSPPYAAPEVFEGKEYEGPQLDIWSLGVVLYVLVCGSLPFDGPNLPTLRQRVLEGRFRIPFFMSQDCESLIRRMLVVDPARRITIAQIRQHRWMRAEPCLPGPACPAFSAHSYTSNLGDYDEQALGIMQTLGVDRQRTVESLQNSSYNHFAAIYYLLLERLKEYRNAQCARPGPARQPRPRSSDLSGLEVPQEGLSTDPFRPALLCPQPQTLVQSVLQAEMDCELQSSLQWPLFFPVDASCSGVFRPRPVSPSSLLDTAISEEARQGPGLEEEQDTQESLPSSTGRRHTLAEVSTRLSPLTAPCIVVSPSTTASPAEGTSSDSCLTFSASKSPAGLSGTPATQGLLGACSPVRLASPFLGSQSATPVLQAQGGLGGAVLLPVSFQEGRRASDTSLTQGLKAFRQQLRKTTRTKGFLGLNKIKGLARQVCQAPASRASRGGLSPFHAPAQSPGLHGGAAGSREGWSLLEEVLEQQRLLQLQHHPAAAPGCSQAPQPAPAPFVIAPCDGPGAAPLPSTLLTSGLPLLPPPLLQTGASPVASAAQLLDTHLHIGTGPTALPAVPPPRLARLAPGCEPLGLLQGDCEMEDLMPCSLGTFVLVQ
- TEST_METHOD_NOTES: biochemical
- CONDITION_PARAMETERS: 33P radioactive SIK kinase assay, AMARA peptide, 10 μM ATP; read-out: SIK1 IC50
pIC50: −log10 of the molar value.
READOUT_NAME: pIC50

Q: Sample COc1cc(-c2cnc3cc(-c4cnn(CCCC(=O)O)c4)ccn23)cc(OC)c1C(=O)NCC(F)(F)F — what was its pIC50?
Result: 8.00 to 11.00

Q: Fill in: pIC50 of COc1cc(-c2cnc3cc(-c4cnn(CC(=O)O)c4)ccn23)cc(OC)c1C(=O)NCC(F)(F)F is ___
Result: 8.00 to 11.00

Q: What does the record list as pIC50 for CCn1cc(-c2cnc3c(c2)ncn3-c2cc(OC)c(C(=O)NCC(F)(F)F)c(OC)c2)cn1 ?
Result: 7.00 to 8.00

Q: Recorded pIC50 of COc1cc(-c2cnc3cc(-c4cc(C)no4)ccn23)cc(OC)c1C(=O)NCC(F)(F)F , please.
Result: 7.00 to 8.00

***
Q: What value of measured pIC50 is listed for COCCN(C)C(=O)c1c(OC)cc(-c2cnc3cc(-c4cnn(C)c4)ccn23)cc1OC ?
Result: < 6.30

Q: Endpoint output: pIC50 of COc1cc(-n2cnc3cc(-c4cnn(C)c4)ccc32)cc(OC)c1C(=O)N1CC2(C1)CS(=O)(=O)C2 . Value?
Result: 6.30 to 7.00

Q: Can you look up the measured pIC50 of CCNC(=O)c1c(OC)cc(-n2cnc3cc(-c4nnc(C)[nH]4)ccc32)cc1OC(F)F for me?
Result: < 6.30

Q: Record request: pIC50 value, item COc1cc(-n2cnc3cc(-c4cnn(C)c4)ccc32)cc(OC)c1C(=O)N1CC(OCc2ccccc2)C1
Result: 7.00 to 8.00

Q: What does the record list as pIC50 for COC(=O)Cn1cc(-c2ccn3c(-c4cc(OC)c(C(=O)NCC(F)(F)F)c(OC)c4)cnc3c2)cn1 ?
Result: 8.00 to 11.00

Q: Name the reported pIC50 value associated with the molecule COc1cc(-n2cnc3cc(-c4cnn(C)c4)ccc32)cc(OC)c1C(=O)NC1CCC[C@H]1O (stereo in doubt)
Result: 7.00 to 8.00

Q: Which pIC50 reading was recorded for the molecule CCOC(=O)Cn1cc(-c2ccn3c(-c4cc(OC)c(C(=O)NCC(F)(F)F)c(OC)c4)cnc3c2)cn1 ?
Result: 8.00 to 11.00

---

IC50 overview
- TESTED_SYSTEM: SIK1 (Homo sapiens)
- Construct: purchased Carna Biosciences 02-131
- TEST_METHOD_NOTES: biochemical
- CONDITION_PARAMETERS: 33P radioactive SIK kinase assay, AMARA peptide, 10 μM ATP; read-out: SIK1 IC50

Below, each entry is followed by its recorded IC50 result.
Q: State the recorded IC50 for this entry: CCN1Cc2cc(-c3cnc4cc(-c5cnn(C)c5)ccn34)cc(NCCO)c2C1=O
Result: > 500 nM

Q: Quick check: IC50 of COc1cc(-n2cnc3cc(-c4cnn(C)c4)ccc32)cc(OC)c1C(=O)NC1COC1 ?
Result: 10 to 100 nM

Q: Field request: IC50 | item: CCNC(=O)c1c(OC)cc(-c2cnc3cc(-c4cc(C)no4)ccn23)cc1OC(F)F
Result: 10 to 100 nM

Q: Entry COc1cc(-n2cnc3cc(-c4cnn(C)c4)ccc32)cc(OC)c1C(=O)N1CCC(OC(F)(F)F)CC1 : reported IC50 = ?
Result: 100 to 500 nM

Q: Query (compound): COc1cc(-n2cnc3cc(-c4cnn(C)c4)ccc32)cc(OC)c1C(=O)Nc1ccnn1C ; field requested: IC50
Result: > 500 nM

Others:
Q: Item under review: COc1cc(-n2cnc3cc(-c4nc(C)no4)ccc32)cc(OC)c1C(=O)NCC(F)(F)F . Reported IC50?
Result: > 500 nM

Q: Entry COC(=O)C1CN(C(=O)c2c(OC)cc(-c3cnc4cc(-c5cnn(C)c5)ccn34)cc2OC)C1 : reported IC50 = ?
Result: 10 to 100 nM

Q: Given COc1cc(-n2cnc3cc(-c4cnoc4)ccc32)cc(OC)c1C(=O)NCC(F)(F)F , state its recorded IC50.
Result: 10 to 100 nM
